# ASSAY_SUMMARY: cytotoxicity assay (percent viability of HEp-2 cells, Cell Titer-Glo)
# CONDITION: human, HEp-2 cells
OUTCOME_MEASURE: CC50 at 6 days

O=C(NC1=NCCS1)c1cc2c(s1)CCCCCC2    > 25 µg/mL
Cc1cccc(N2C(=O)CC(Cc3ccc(Cl)cc3)C2=O)c1Cl (centres unmarked)    > 25 µg/mL
COc1ccc(S(=O)(=O)N2CCC(C(=O)N3CCN(c4ccccc4)CC3)CC2)cc1Cl    > 25 µg/mL

Which CC50 at 6 days value is on record for CC(=O)CCc1c(C)nc2ccc(Br)cc2c1S ? > 25 µg/mL

Which CC50 at 6 days value is on record for COC(=O)c1ccc(NC(=O)c2ccc(C)c(Br)c2)cc1 ? > 25 µg/mL

* * *

# ASSAY_SUMMARY: cytotoxicity assay (percent viability of HEp-2 cells, Cell Titer-Glo)
# CONDITION: human, HEp-2 cells
OUTCOME_MEASURE: CC50 at 6 days

Would you please look over these solved cases?
CCc1ccc(Nc2nnc(SCC(=O)Nc3cc(OC)c([N+](=O)[O-])cc3C)s2)cc1    > 50 µM
O=S(=O)(O)c1cc(/N=N/c2cc(S(=O)(=O)O)c3cccnc3c2O)ccc1CCc1ccc(/N=N/c2cc(S(=O)(=O)O)c3cccnc3c2S)cc1S(=O)(=O)O    > 50 µM
COc1ccc(-c2ccc(-c3noc(-c4ccco4)n3)c(OC)n2)cc1    > 25 µg/mL
Cn1c(SC/C=C/c2ccccc2)nnc1-c1cccs1    > 25 µg/mL
Cc1ccc(C)n1-c1ccc(C(=O)O)cc1    > 25 µg/mL

Which CC50 at 6 days value is on record for NC(=O)c1ccccc1NC(=O)CSc1nc2ccccc2o1 ? > 25 µg/mL

Which CC50 at 6 days value is on record for S=C(c1ccc(OCc2cccc3ccccc23)cc1)N1CCOCC1 ? > 25 µg/mL

Which CC50 at 6 days value is on record for O=C(Cc1cccs1)Nc1nc2c(s1)CCCC2 ? > 25 µg/mL

Which CC50 at 6 days value is on record for CC(=O)CCc1c(O)nc2ccccc2c1C ? > 25 µg/mL

* * *

Listing: CC50 at 6 days of selected compounds
# ASSAY_SUMMARY: cytotoxicity assay (percent viability of HEp-2 cells, Cell Titer-Glo)
# CONDITION: human, HEp-2 cells

Would you please look over these solved cases?
C=CCNC(=O)COc1ccc(Br)cc1C    > 25 µg/mL
COCCn1c(SC(C)C(=O)Nc2cccc(C(F)(F)F)c2)nc2ccccc21 (centres unmarked)    > 50 µM
Cc1ccccc1C(=O)NC(=S)Nc1cccc(F)c1    > 25 µg/mL
CCOC(=O)C1=C(C)Nc2ncnn2C1c1ccc(OC)c(OCC)c1 (centres unmarked)    > 25 µg/mL

Next compound, CC50 at 6 days to be filled in.
Which CC50 at 6 days value is on record for COCC(C)n1c(SC(C)C(=O)Nc2cc([N+](=O)[O-])ccc2Cl)nc2ccccc2c1=O (centres unmarked) ? > 50 µM

* * *

Listing: log reduction at 3 µg/mL of selected compounds
# Test system: RSV, Long strain
# ASSAY_SUMMARY: virus titer Reduction (VTR) assay, progeny virus TCID50 in HEp-2 cells
# Type: cell-based, respiratory syncytial virus (RSV)
# CONDITION: human respiratory syncytial virus, 48 h, 3 ug/ml compound, read-out: TCID-50 Reduction @ 3 ug/ml

CCCn1c(COc2ccccc2OC)nc2ccccc21    1.74
CCOC(=O)Cc1nnc(Nc2ccc(C)cc2)c2ccccc12    1
O=C(Cc1cccs1)Nc1nc2c(s1)CCCC2    3.56
O=C1c2ccccc2C(=O)N1CCCCN(C(=O)c1ccco1)c1ccc(Cl)cc1    1.66
Cc1cccc(N2C(=O)CC(Cc3ccc(Cl)cc3)C2=O)c1Cl (stereo not shown)    1.22

Which log reduction at 3 µg/mL value is on record for Cc1cc(C)cc(C(=O)Nc2cccc(NC(=O)c3ccccc3C)c2)c1 ? 1.55

Which log reduction at 3 µg/mL value is on record for Cc1ccccc1C(=O)N1CCCN(C(=O)c2ccccc2C)CC1 ? 1.53

Which log reduction at 3 µg/mL value is on record for CCCSC1=C(C#N)C(c2ccco2)C(C(=O)Nc2ccccc2)=C(C)N1 (stereo not shown) ? 1

Which log reduction at 3 µg/mL value is on record for COc1ccccc1CCNC(=O)c1cc2c(s1)CCCC2 ? 1.82

Which log reduction at 3 µg/mL value is on record for O=C1c2ccccc2C(=O)N1CCCCN(C(=O)c1cccc([N+](=O)[O-])c1)c1ccc(Cl)cc1 ? 1.55

Which log reduction at 3 µg/mL value is on record for COc1c(C)cccc1C(=O)NCCOc1ccc(Cl)cc1 ? 1

Which log reduction at 3 µg/mL value is on record for COCc1cc(C)nc(SCC(=O)Nc2ccccc2N2CCOCC2)c1C#N ? 1

Which log reduction at 3 µg/mL value is on record for O=C(CCSc1ccccc1)Nc1ccccc1C(=O)O ? 1

Which log reduction at 3 µg/mL value is on record for CSc1ccccc1C(=O)Nc1ccc(S(=O)(=O)Nc2cccc(Cl)c2Cl)cc1 ? 1

Which log reduction at 3 µg/mL value is on record for COC(=O)C1=C(C)N(Cc2ccccc2)C(=O)NC1c1ccc(OC)c(OC)c1 (stereo not shown) ? 2.42

Which log reduction at 3 µg/mL value is on record for COCc1cc(C)nc(SCC(=O)Nc2ccccc2C(=O)c2ccccc2)c1C#N ? 1

Which log reduction at 3 µg/mL value is on record for CCCn1cnc2sc(-c3ccccc3)cc2c1=O ? 1.82

Which log reduction at 3 µg/mL value is on record for c1coc(-c2nn3c(Cn4cnc5ccccc54)nnc3s2)c1 ? 1

Which log reduction at 3 µg/mL value is on record for CC(=O)N(CCCCN1C(=O)c2ccccc2C1=O)c1ccc(C)cc1 ? 1.41

// data source = patent US20130085133A1
